Test system: Mycoplasma mycoides subsp. mycoides SC
Experiment: Antimicrobial activity against Mycoplasma mycoides subsp. mycoides SC KH3J after 2 hrs
Type: functional
assay_readout: MIC (µM)
Report the value in µM with no unit label.

Problem: Please give the documented MIC of CC[C@@](C)(NC(=O)C(C)(C)NC(=O)[C@@H](NC(=O)[C@@H]1CCCN1C(=O)C(C)(C)NC(=O)[C@H](CC(C)C)NC(=O)CNC(=O)C(C)(C)NC(=O)[C@@H](NC(=O)C(C)(C)NC(=O)[C@H](CCC(N)=O)NC(=O)[C@H](C)NC(=O)C(C)(C)NC(=O)[C@H](C)NC(=O)C(C)(C)NC(=O)[C@H](C)NC(=O)C(C)(C)NC(C)=O)C(C)C)C(C)C)C(=O)N[C@@H](CCC(=O)O)C(=O)N[C@@H](CCC(N)=O)C(=O)N[C@H](CO)Cc1ccccc1
Solution: 6.25
